Test system: ATP;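 further: ATP exposure 15 min at 22 °C before imaging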
EXPERIMENT_DESCRIPTION: switch fluorescence ratio, 500 uM ATP over buffer (Cy3 cluster intensity, sum of 5 cycles each) (fold (ratio)); higher = stronger signal-on switching upon ATP binding; sequences stand for … in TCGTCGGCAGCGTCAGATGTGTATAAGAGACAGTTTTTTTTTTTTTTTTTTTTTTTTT…TC
CONDITION_DESCRIPTION: aptamer strand: ATP DNA aptamer (quencher-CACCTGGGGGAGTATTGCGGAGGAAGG + anchor), 100 nM annealed; ATP concentration: 500 uM
VALUE_KIND: switch fluorescence ratio
# respond with the number and nothing more

Worked set:
GGTTAGATTG: 1.01
TTGTTGAGGA: 1.01
GGTAGTGGGT: 1

# ---- query sequence ----
# lookup: CAAGGGGTGG on ATP, switch fluorescence ratio = 0.996
